ASSAY_REMARKS: Solubility in water
Assay type: physicochemical
ASSAY_SETUP: Temperature 200° C.

ITEM_SMILES | Solubility in water / g/100 g-water
O=C(O)c1ccc(-c2ccc(C(=O)O)cc2)cc1 | 0.04
O=C(O)c1cccc(C(=O)O)c1 | 24.2
O=C(O)c1ccc2cc(C(=O)O)ccc2c1 | 0.21
O=C(O)c1ccc(C(=O)O)cc1 | 1.7

###

ASSAY_REMARKS: Solubility in water
Format: physicochemical
ASSAY_SETUP: Temperature 150° C.
# Solubility in water per record follows

MOLECULE | Solubility in water
O=C(O)c1ccc(C(=O)O)cc1 [Terephthalic acid] | 0.25 g/100 g-water
O=C(O)c1ccc(-c2ccc(C(=O)O)cc2)cc1 [4,4′-biphenyldicarboxylic acid] | 0.01 g/100 g-water
O=C(O)c1cccc(C(=O)O)c1 [Isophthalic acid] | 2.7 g/100 g-water
O=C(O)c1ccc2cc(C(=O)O)ccc2c1 [2,6-naphthalenedicarboxylic acid] | 0.03 g/100 g-water

Reference source: patent US20020115884A1
